- target-system: CLK2 kinase (Homo sapiens, UniProt P49760)
- Sequence (P49760 whole entry): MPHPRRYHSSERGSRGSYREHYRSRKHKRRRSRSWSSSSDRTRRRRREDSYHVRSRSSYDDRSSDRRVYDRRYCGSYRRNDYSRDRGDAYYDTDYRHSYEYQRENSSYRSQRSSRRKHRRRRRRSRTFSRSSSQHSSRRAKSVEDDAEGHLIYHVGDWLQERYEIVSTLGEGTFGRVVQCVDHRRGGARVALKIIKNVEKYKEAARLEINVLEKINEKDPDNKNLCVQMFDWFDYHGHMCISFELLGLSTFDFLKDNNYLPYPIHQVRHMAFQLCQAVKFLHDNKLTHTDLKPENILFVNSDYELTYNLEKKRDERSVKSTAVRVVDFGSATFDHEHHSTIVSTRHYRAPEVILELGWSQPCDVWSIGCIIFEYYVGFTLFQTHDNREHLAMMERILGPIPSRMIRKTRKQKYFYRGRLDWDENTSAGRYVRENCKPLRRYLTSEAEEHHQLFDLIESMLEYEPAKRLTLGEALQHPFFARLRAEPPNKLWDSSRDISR
- method: CLK2 kinase activity assay (Z-lyte FRET);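 further: FRET read-out as coumarin to fluorescein emission ratio, unphosphorylated peptide as 0% and phosphorylated peptide as 100% controls, duplicate reactions, non-linear regression fit of dose-response curves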
- test-parameters: Z-lyte Ser/Thr 6 peptide, 60 μM ATP, 1 h at room temperature
value-type: EC50 (nM)
Give the value in nM but do not write nM after it.

Worked cases, answers included:
> print(dat)
                                   molecule  result.unit  test.result
1  CN(C)Cc1cncc(-c2cnc3[nH]nc(-c4nc5c(-c6cccc(F)c6)cncc5[nH]4)c3c2)c1           nM            1
2  Nc1cncc(-c2ccc3[nH]nc(-c4nc5c(-c6ccccc6F)ccnc5[nH]4)c3c2)c1           nM            4
3  Cn1cc(-c2ccc3cnc(NC(=O)C4=CNC5C=CC=CC5=C4)cc3c2)cn1 (stereo not shown)           nM            4
4  COc1ccc(NC(=O)c2n[nH]c3ccc(-c4cncc(CN5CCC(F)(F)C5)c4)cc23)cn1           nM            2

The reported EC50 value, CLK2 kinase (Homo sapiens, UniProt P49760), for `c1cncc(-c2cnc3[nH]nc(-c4nc5c(-c6cccnc6)cncc5[nH]4)c3c2)c1` reads 15

The reported EC50 value, CLK2 kinase (Homo sapiens, UniProt P49760), for Fc1cccc(-c2cncc3[nH]c(-c4n[nH]c5ccc(-c6cncc(CN7CCC(F)(F)C7)c6)cc45)nc23)c1 [compound 141] reads 9

The reported EC50 value, CLK2 kinase (Homo sapiens, UniProt P49760), for `O=C(Cc1ccccc1)Nc1cncc(-c2ccc3[nH]nc(-c4nc5c(-c6ccoc6)cncc5[nH]4)c3c2)c1` reads 6

###

In this section, each of the compounds is paired with its reported EC50.
- System: primary human mesenchymal stem cells (hMSCs)
- method: Chondrogenesis screening using primary human mesenchymal stem cells
- Format: cell-based
- test-parameters: Homo sapiens, Mesenchymal stem cells, hMSC chondrogenesis; concentration required to induce 50% levels of chondrogenesis with TGF-β3 as positive control; read-out: Conc (nM) of 50% TGF-β3 activity
Could you give the number and then its unit, please?

> print(dat)
                                   compound  test.result
1  COc1cncc(-c2ccc3[nH]nc(-c4nc5c(-c6cccc(F)c6)nccc5[nH]4)c3n2)c1 [compound 148]      20.6 nM

Memo: CS(=O)(=O)NCc1cc(F)cc(-c2nccc3[nH]c(-c4n[nH]c5ncc(-c6cncc(NC(=O)C7CCC7)c6)cc45)cc23)c1 [compound 528] , reported EC50: 300 nM

Memo: Cc1cn(-c2nccc3[nH]c(-c4n[nH]c5ccc(-c6cncc(NC(=O)CC(C)C)c6)nc45)nc23)cn1 [compound 226] , reported EC50: 30 nM

Memo: Fc1ccc(-c2cncc3[nH]c(-c4n[nH]c5cnc(-c6cncc(CN7CCC(F)(F)C7)c6)cc45)cc23)cc1 [compound 317] , reported EC50: 100 nM

Memo: Nc1cncc(-c2cc3c(-c4cc5c(N6CCCCC6)cncc5[nH]4)n[nH]c3cn2)c1 [compound 456] , reported EC50: 30 nM

Memo: CC(C)CC(=O)Nc1cncc(-c2cnc3[nH]nc(-c4cc5c(-c6ccncc6)cccc5[nH]4)c3c2)c1 [compound 389] , reported EC50: 30 nM

Memo: CC(C)CC(=O)Nc1cncc(-c2ccc3[nH]nc(-c4nc5c(-c6ccc(F)cc6)cncc5[nH]4)c3c2)c1 [compound 163] , reported EC50: 100 nM

###

- target-system: CLK2 kinase (Homo sapiens)
- method: CLK2 kinase activity assay (Z-lyte FRET)
- test-parameters: Z-lyte Ser/Thr 6 peptide, 60 μM ATP, 1 h at room temperature
value-type: EC50 (nM)
Give the value in nM but do not write nM after it.

Worked cases, answers included:
> print(dat)
                                item.smiles               target.system  value.type  result.unit  test.result
1  CN(C)CCNc1cc(F)cc(-c2cccc3[nH]c(-c4n[nH]c5cnc(-c6cncc(O)c6)cc45)cc23)c1  CLK2 kinase (Homo sapiens)        EC50           nM            5
2  CS(=O)(=O)NCc1cc(F)cc(-c2nccc3[nH]c(-c4n[nH]c5ccc(-c6cncc(NC(=O)Cc7ccccc7)c6)nc45)cc23)c1  CLK2 kinase (Homo sapiens)        EC50           nM           17
3  CC(C)Nc1cncc(-c2ccc3[nH]nc(-c4cc5c(-c6cccnc6)cncc5[nH]4)c3c2)c1  CLK2 kinase (Homo sapiens)        EC50           nM            4
4  CC(C)Nc1cncc(-c2ccc3[nH]nc(-c4nc5c(-c6cc(F)cc(NCCN(C)C)c6)cncc5[nH]4)c3n2)c1  CLK2 kinase (Homo sapiens)        EC50           nM            1

Memo: `O=C(Nc1ccc(N2CCC(O)CC2)nc1)c1n[nH]c2ccc(-c3cncc(CN4CCCCC4)c3)cc12` , reported EC50: 1

Memo: `CCC(=O)Nc1cncc(-c2cnc3[nH]nc(-c4cc5cnccc5[nH]4)c3c2)c1` , reported EC50: 2

Memo: `FC1(F)CCN(Cc2cncc(-c3cnc4[nH]nc(-c5cc6c(-c7ccncc7)cccc6[nH]5)c4c3)c2)C1` , reported EC50: 15

Memo: `c1cncc(-c2ccc3[nH]nc(-c4cc5cnccc5[nH]4)c3c2)c1` , reported EC50: 1

Memo: `c1cncc(-c2ccc3[nH]nc(-c4cc5c(-c6cccnc6)ccnc5[nH]4)c3n2)c1` , reported EC50: 3

###

- target-system: UniProt P49760
- method: CLK2 kinase activity assay (Z-lyte FRET)
- test-parameters: Z-lyte Ser/Thr 6 peptide, 60 μM ATP, 1 h at room temperature
In this section, each of the compounds is paired with its reported pEC50.
A value of pEC50 is the negative decimal logarithm of a concentration given in moles per litre.

Worked cases, answers included:
> print(dat)
                                item.smiles  value.type  test.result
1  Cc1n[nH]c2ccc(-c3cncc(NCC4(F)CNC4)n3)cc12       pEC50         8.52
2  Fc1cccc(-c2cncc3[nH]c(-c4n[nH]c5ncc(-c6cccnc6)cc45)cc23)c1       pEC50         8.10
3  O=C(Nc1cncc(-c2cnc3[nH]nc(-c4cc5c(-c6ccccc6F)nccc5[nH]4)c3c2)c1)C1CC1       pEC50         8.22

Memo: `CN1CCN(c2nccc3[nH]c(-c4n[nH]c5ccc(-c6cncc(NC(=O)c7ccccc7)c6)cc45)cc23)CC1` , reported pEC50: 8.22

###

- target-system: CLK3 kinase (Homo sapiens)
- Sequence (P49761 whole entry): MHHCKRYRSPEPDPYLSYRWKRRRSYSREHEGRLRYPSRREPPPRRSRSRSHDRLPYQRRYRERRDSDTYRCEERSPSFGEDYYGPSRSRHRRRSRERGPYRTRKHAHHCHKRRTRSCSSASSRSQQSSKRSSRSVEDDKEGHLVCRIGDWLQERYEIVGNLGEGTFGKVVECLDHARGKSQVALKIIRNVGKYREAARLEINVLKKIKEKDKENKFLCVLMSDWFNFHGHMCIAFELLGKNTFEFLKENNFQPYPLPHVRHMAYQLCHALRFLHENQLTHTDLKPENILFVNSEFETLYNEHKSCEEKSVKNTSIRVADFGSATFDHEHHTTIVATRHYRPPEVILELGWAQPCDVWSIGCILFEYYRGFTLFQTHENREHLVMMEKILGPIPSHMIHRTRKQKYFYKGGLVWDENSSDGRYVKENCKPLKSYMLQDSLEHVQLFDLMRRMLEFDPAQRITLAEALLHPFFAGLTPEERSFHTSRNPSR
- method: CLK3 kinase activity assay (Z-lyte FRET);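 further: kinase activity read as coumarin/fluorescein emission ratio by FRET, unphosphorylated peptide as 0% and phosphorylated peptide as 100% control, values from non-linear regression of dose-response curves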
- test-parameters: Z-lyte Ser/Thr 18 peptide, 156 μM ATP, 1 h at room temperature
In this section, each of the compounds is paired with its reported pEC50.
A value of pEC50 is the negative decimal logarithm of a concentration given in moles per litre.

Worked cases, answers included:
> print(dat)
                                item.smiles               target.system  test.result
1  CN1CCN(c2ccc(C(=O)N3CCN(c4cc(C(=O)Nc5cc6cc(-c7cnn(C)c7)ccc6cn5)ccn4)CC3)cn2)CC1  CLK3 kinase (Homo sapiens)         6.55
2  c1csc(-c2nccc3[nH]c(-c4n[nH]c5cnc(-c6cncc(CN7CCCCC7)c6)cc45)cc23)c1  CLK3 kinase (Homo sapiens)         6.85

Now consider a different compound.
Memo: `CC(C)CC(=O)Nc1cncc(-c2cnc3[nH]nc(-c4cc5c(-c6cc(F)cc(CNS(C)(=O)=O)c6)nccc5[nH]4)c3c2)c1` , reported pEC50: 7.32

###

- Test system: primary human mesenchymal stem cells (hMSCs)
- method: Chondrogenesis screening using primary human mesenchymal stem cells
- Format: cell-based
- test-parameters: Homo sapiens, Mesenchymal stem cells, hMSC chondrogenesis; concentration required to induce 50% levels of chondrogenesis with TGF-β3 as positive control; read-out: Conc (nM) of 50% TGF-β3 activity
- Protocol: Representative compounds were screened using primary human mesenchymal stem cells (hMSCs) to determine their ability to induce chondrogenesis (process by which cartilage is developed). […] Area of nodules in each well was normalized to the average of 3 DMSO treated wells on the same plate using Excel (Microsoft Inc.). The normalized averages (fold change over DMSO) of 2 or 3 replicate wells for each compound concentration were calculated. […]
In this section, each of the molecules is paired with its reported EC50.
Give the value in nM but do not write nM after it.

Worked cases, answers included:
> print(dat)
                                   molecule  value.type  test.result
1  Cc1ccc(NC(=O)c2n[nH]c3ccc(-c4cncc(CN5CCCCC5)c4)cc23)cn1 [compound 78]        EC50           30
2  Cc1ncc(-c2ccc3[nH]nc(-c4nc5c(-c6cccc(F)c6)cccc5[nH]4)c3n2)n1C [compound 158]        EC50           10
3  CCCCC(=O)Nc1cncc(-c2cc3c(-c4cc5c(-c6cc(F)cc(CNS(C)(=O)=O)c6)nccc5[nH]4)n[nH]c3cn2)c1 [compound 521]        EC50           10
4  O=C(Nc1cncc(-c2cnc3[nH]nc(-c4cc5cnccc5[nH]4)c3c2)c1)c1ccccc1 [compound 435]        EC50           30
5  CN(C)c1cncc(-c2ccc3[nH]nc(-c4nc5c(-c6cccc(F)c6)ccnc5[nH]4)c3n2)c1 [compound 133]        EC50           10

Memo: Cn1cc(-c2cc3c(-c4nc5c(-c6cccc(F)c6)cncc5[nH]4)n[nH]c3cn2)cn1 [compound 157] , reported EC50: 100

Memo: CC1CCN(Cc2cncc(-c3ccc4[nH]nc(C(=O)Nc5cccnc5)c4c3)c2)CC1 [compound 98] , reported EC50: 30
